Ref: patent US20260265222A1

Entries annotated with measured log10 of IC50
# target_entity: GST-YTHDC1 (345-509) protein (Homo sapiens, UniProt Q96MU7)
# Construct: GST-YTHDC1 (345-509) protein
# assay_explanation: Fluorescence polarization-based in vitro enzyme-level test against YTHDC1
# Assay type: binding
# measurement_setup: 30 nM GST-YTHDC1 (345-509), FAM-labeled m6A-modified single-stranded oligonucleotide, 18° C., 4 hours; read-out: IC50 (Inhibitory Activity against YTHDC1)
Short version: log10 scale, IC50, nM.

{"structure_smiles": "CS(=O)(=O)c1ccccc1-c1nccc2cc(C(=O)Nc3ccc(-c4cncs4)cc3)[nH]c12", "readout_value": 1.83}
{"structure_smiles": "CS(=O)(=O)c1ccccc1-c1nccc2[nH]c(C(=O)Nc3ccc(-c4ccccc4)cc3)cc12", "readout_value": 4.56}
{"structure_smiles": "CN(C)c1ccccc1-c1ccc(NC(=O)c2cc(C(=O)c3ccccc3C(F)(F)F)c[nH]2)cc1", "readout_value": 2.62}
{"structure_smiles": "COc1cc(NC(=O)c2cc(C(=O)c3ccccc3C(F)(F)F)c[nH]2)ccc1C(F)(F)F", "readout_value": 1.20}
{"structure_smiles": "O=C(Nc1cccc(F)c1)c1cc(C(=O)c2ccccc2C(F)(F)F)c[nH]1", "readout_value": 2.39}

Shift focus to the following entry.
Q: Quick one: give measured log10 of IC50 for O=C(Nc1ccc(-c2cnco2)cc1)c1cc(C(=O)c2ccccc2C2=COCC2)c[nH]1
Result: 1.59
